Target: T1, RBD of SARS-CoV-2 spike protein S1 (recombinant, construct not stated) (SARS-CoV-2, UniProt P0DTC2 328-533)
T1 construct: also called SARS-COV-2, RBD; RBD-AF647
Test: ELISA, RBD coated, scFv titrated, anti-Flag HRP
pEC50: −log10 of the molar value.
READOUT KIND: pEC50

# BINDER, READOUT VALUE
data = [
    ("2020EP54-H01 scFv (scFv, also called 2020EP054-H01) scFv: QVQLVESGGGVVQPGRSLRLSCAASGFTFSSYGMHWVRQAPGKGLEWVAVISYDGSNKYYADSVKGRFTISRDNSKNTLYLQMNSLRAEDTAVYYCAKGRGWYLDYWGQGTLVTVSSGGGGSGGGGSGGGGSNFMLTQPPSVSVSPGQTASITCSGDKLGDKYACWYQQKPGQSPVLVMYEDYKRPSGIPARFSGSNSGNTATLTISRVEGGDEGDYYCQVWDSRGPEVIFGGGTKLTVL", 8.24),
]
